B1: Azoarcus group I ribozyme (parent)
chain: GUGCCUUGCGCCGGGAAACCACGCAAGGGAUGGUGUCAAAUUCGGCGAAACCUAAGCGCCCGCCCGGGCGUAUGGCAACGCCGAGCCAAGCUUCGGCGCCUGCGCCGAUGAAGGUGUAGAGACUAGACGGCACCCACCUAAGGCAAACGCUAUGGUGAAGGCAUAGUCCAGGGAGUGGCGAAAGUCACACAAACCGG

- Variants of: B1
- EXPERIMENTAL PROTOCOL: reverse-splicing fitness (ratio to wild type); higher = more active; in vitro selection; Mg2+ level not given
# binarize reverse-splicing fitness: threshold 0.01 inclusive, high side YES, low side NO

Query: Please indicate if the recorded reverse-splicing fitness for C82A A111G A120U A145U C169U meets or exceeds 0.01.
Result: NO

Query: Could you tell me if the measured reverse-splicing fitness of C82A A111G A145C C150U U176A reaches 0.01 or more?
Result: YES

Query: Reported reverse-splicing fitness reaches at least 0.01 for C82G A145C C150A C169A U176C ?
Result: NO

Query: Is reverse-splicing fitness for C82U A120C A145C U176G at or above 0.01?
Result: NO

Query: Is reported reverse-splicing fitness greater than or equal to 0.01 here: A111U A120G A145U C150A C169A
Result: YES

Query: Hi, just wondering whether A120G A145C C150G U176C shows reverse-splicing fitness of 0.01 or higher.
Result: YES

Query: Could you verify whether the entry A111U A120G A145C C150G C169A U176C shows reverse-splicing fitness of no less than 0.01?
Result: NO

Query: Assess whether reported reverse-splicing fitness for A120U A145U C150U U176C sits at 0.01 or higher.
Result: YES

Query: State whether the measured reverse-splicing fitness reaches 0.01, counting equality as reaching it, for C82A A111G A120U A145G C150A C169U U176A
Result: NO

Query: In plain terms: is recorded reverse-splicing fitness at least 0.01 for C82G A111U A120U A145G C150U C169U U176G ?
Result: NO

Query: reverse-splicing fitness >= 0.01 for C82A A111C A120G A145U C150G U176G ?
Result: NO

Query: Could you tell me if the measured reverse-splicing fitness of A120G C150A C169A U176A reaches 0.01 or more?
Result: YES

Query: Quick check: does C82U A111G A145U C150G U176G have reverse-splicing fitness greater than or equal to 0.01?
Result: NO
